- target_desc: tau (Homo sapiens, UniProt P10636)
- Sequence (P10636 623-695 limits assumed): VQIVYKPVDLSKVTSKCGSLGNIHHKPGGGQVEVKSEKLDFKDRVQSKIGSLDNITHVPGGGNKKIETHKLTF
- test_name: MCE Phenols Library screening, tau biosensor cell seeding assay (AvZ)
- Format: cell-based
- stated_conditions: Z score, replicate 1
experimental_endpoint: Z repl 1
Could you respond with only the numeric value?

Z repl 1 in this record for CCCOC(=O)c1cc(O)c(O)c(O)c1 [Propyl gallate] : -0.716

Z repl 1 in this record for O=C(O)CCc1cccc(O)c1 [3-(3-Hydroxyphenyl)propionic acid] : 1.121

Z repl 1 in this record for O=C(/C=C/c1ccc(O)c(O)c1)O[C@@H]1C[C@@](O)(C(=O)O)C[C@@H](O)[C@@H]1O : -0.752

Z repl 1 in this record for CC(C)=CC[C@H](OC(=O)C=C(C)C)C1=CC(=O)c2c(O)ccc(O)c2C1=O : 0.881

Z repl 1 in this record for COc1c(O[C@@H]2O[C@H](CO)[C@@H](O)[C@H](O)[C@H]2O)cc2c(c1O)C(=O)c1c(cc(C)c(O)c1OC)C2=O [Aurantio-obtusin ?-D-glucoside] : -0.961

---

- target_desc: UniProt:P10636
- test_name: MCE Phenols Library screening, tau biosensor cell seeding assay (AvZ)
- Assay type: cell-based
- stated_conditions: Z score, replicate 1
Outcome label depends on Z repl 1 relative to -0.02: at/above gives Condition met, below gives Condition not met.

Data request: Given COc1ccc(-c2cc(=O)c3c(O)cc(O[C@@H]4O[C@H](CO)[C@@H](O)[C@H](O)[C@H]4O[C@@H]4O[C@@H](C)[C@H](O)[C@@H](O)[C@H]4O)cc3o2)cc1O , state whether its Z repl 1 is at least -0.02.
Data returned: Condition met

Data request: Given CC(C)=CCc1c(O)cc2c(c1O)C(=O)C[C@@H](c1ccc(O)cc1)O2 , state whether its Z repl 1 is at least -0.02.
Data returned: Condition met

Data request: Given O=c1oc2cc(O)ccc2c2oc3cc(O)ccc3c12 , state whether its Z repl 1 is at least -0.02.
Data returned: Condition met

Data request: Given COc1ccc2c(c1O)-c1c(OC)c(OC)cc3c1[C@H](C2)N(C)CC3 , state whether its Z repl 1 is at least -0.02.
Data returned: Condition not met

Data request: Given O=C(O)C(O)Cc1ccc(O)cc1 (stereo not drawn) [Hydroxyphenyllactic acid] , state whether its Z repl 1 is at least -0.02.
Data returned: Condition not met

Data request: Given O=c1c(O)c(-c2ccc(O)cc2)oc2c(O)c(O)cc(O)c12 , state whether its Z repl 1 is at least -0.02.
Data returned: Condition not met

Data request: Given O=c1c(O[C@@H]2O[C@H](CO)[C@@H](O)[C@H](O)[C@H]2O[C@@H]2O[C@H](CO)[C@@H](O)[C@H](O)[C@H]2O)c(-c2ccc(O)cc2)oc2cc(O)cc(O)c12 [Kaempferol 3-O-sophoroside] , state whether its Z repl 1 is at least -0.02.
Data returned: Condition not met

Data request: Given COc1cc2c(cc1OC)[C@@H](Cc1ccc(O)c(Oc3cc4c(cc3OC)CCN(C)[C@@H]4Cc3ccc(O)cc3)c1)N(C)CC2 , state whether its Z repl 1 is at least -0.02.
Data returned: Condition not met

Data request: Given O=c1c(-c2ccc(O)cc2)coc2cc(O[C@@H]3O[C@H](CO)[C@@H](O)[C@H](O)[C@H]3O)cc(O)c12 , state whether its Z repl 1 is at least -0.02.
Data returned: Condition met

Data request: Given O=C(/C=C/c1ccccc1)c1ccc(O)cc1 [4'-Hydroxychalcone] , state whether its Z repl 1 is at least -0.02.
Data returned: Condition met

Data request: Given O=c1cc(-c2ccc(O)cc2)oc2cc(O)c([C@@H]3O[C@H](CO)[C@@H](O)[C@H](O)[C@H]3O[C@@H]3O[C@H](CO)[C@@H](O)[C@H](O)[C@H]3O)c(O)c12 [Meloside A] , state whether its Z repl 1 is at least -0.02.
Data returned: Condition not met

Data request: Given C[C@@H]1O[C@@H](OC[C@H]2O[C@@H](Oc3c(-c4ccc(OCCO)c(OCCO)c4)oc4cc(OCCO)cc(O)c4c3=O)[C@H](O)[C@@H](O)[C@@H]2O)[C@H](O)[C@H](O)[C@H]1O , state whether its Z repl 1 is at least -0.02.
Data returned: Condition not met
